# targetOrTestSystem: T1, monkey C5-mmh (monkey, UniProt P01031 19-1676 (human entry), limits assumed)
# T1 construct: Recombinant monkey C5 with a C-terminal myc-myc-hexahistidine tag
# T1 chain: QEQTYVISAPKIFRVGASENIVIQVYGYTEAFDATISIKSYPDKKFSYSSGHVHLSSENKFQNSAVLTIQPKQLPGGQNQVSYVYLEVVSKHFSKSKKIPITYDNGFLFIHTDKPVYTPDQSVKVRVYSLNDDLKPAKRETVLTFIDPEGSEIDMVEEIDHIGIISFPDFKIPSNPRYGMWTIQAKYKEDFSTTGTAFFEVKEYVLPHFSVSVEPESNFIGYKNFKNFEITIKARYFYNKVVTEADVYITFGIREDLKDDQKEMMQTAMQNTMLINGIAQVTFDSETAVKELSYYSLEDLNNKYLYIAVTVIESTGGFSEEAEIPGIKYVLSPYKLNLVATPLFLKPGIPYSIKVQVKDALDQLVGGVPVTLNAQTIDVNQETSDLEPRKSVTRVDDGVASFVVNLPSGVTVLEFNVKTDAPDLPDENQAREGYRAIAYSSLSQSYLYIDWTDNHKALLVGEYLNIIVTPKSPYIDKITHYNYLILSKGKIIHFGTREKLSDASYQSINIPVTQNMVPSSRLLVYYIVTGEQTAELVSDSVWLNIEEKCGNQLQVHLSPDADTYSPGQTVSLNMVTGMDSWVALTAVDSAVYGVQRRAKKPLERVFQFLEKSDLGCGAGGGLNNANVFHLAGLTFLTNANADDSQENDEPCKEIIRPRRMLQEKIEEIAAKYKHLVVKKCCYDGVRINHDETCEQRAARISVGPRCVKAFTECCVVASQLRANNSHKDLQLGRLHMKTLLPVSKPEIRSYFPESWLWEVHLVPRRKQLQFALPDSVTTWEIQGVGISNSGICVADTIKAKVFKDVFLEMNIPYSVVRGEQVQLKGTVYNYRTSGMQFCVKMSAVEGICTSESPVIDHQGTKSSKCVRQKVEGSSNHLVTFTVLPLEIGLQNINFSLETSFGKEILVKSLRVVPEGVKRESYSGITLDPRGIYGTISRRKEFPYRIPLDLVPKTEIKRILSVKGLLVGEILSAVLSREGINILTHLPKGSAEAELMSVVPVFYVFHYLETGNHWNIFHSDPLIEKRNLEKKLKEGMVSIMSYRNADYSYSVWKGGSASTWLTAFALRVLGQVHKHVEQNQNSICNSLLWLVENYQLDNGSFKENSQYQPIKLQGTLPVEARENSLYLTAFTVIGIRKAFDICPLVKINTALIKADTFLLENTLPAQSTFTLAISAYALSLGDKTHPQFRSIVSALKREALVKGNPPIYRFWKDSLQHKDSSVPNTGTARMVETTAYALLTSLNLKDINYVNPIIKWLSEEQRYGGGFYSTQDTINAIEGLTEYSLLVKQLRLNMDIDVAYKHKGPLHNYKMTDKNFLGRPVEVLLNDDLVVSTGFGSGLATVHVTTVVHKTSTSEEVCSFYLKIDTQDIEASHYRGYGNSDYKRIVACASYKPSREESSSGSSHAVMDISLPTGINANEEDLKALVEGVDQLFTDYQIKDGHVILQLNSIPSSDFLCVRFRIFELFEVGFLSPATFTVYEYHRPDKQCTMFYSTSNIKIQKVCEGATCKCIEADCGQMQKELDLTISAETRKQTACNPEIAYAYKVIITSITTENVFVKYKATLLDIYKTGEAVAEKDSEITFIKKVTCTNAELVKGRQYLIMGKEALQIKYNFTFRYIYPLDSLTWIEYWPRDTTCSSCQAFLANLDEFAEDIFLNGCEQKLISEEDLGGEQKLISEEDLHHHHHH
# assayDetails: SPR, mAb captured via anti-hFc, 37C
Please mark Met if the recorded 100 nM monkey C5-mmh Bound (RU) is equal to or greater than 70 RU, and Not met if it falls below.

H4H11686N (antibody, V domains shown, also called H2M11686N) VH: QVQLVESGGGLVKPGGSLRLSCAASGFTFSDYYMSWIRQAPGKGLEWVSYISSSGNTIKYADSMKGRFTISRDNAKKSLFVEMNSLRAEDTAVYYCARYKSSSDYFDHWGQGTLVTVSS VL: EIVLTQSPATLSLSPGERATLSCRASQSVRSYLAWYQQKPGQAPRLLIYDASNRATAIPARFSGSGSGTDFTLTISSLEPEDLAVYYCQQSGNWPLTFGGGTKVEIK : Met
H4H11683N (antibody, V domains shown, also called H2M11683N) VH: QVQLVESGGGVVQPGRSLRLSCVASGFTFSSYGIHWVRQAPGKGLEWVAVIWDDGNNINYSDSVKGRFIISRDNSRKTVYLQMNSLRGEDTAVYYCARDAPIAPVPDYWGQGTLVTVSS VL: DIQMTQSPSTLSASVGDRVTITCRASQSISSWLAWYQQKPGKAPKLLIYKASSLDTGVPSRFSGSGSGTEFTLTISSLQPDDFATYYCQQYNTYSYTFGLGTKLEIK : Met
H4H12159P (antibody, human IgG4, V domains shown, Human IgG4 Fc with S108P hinge mutation (H4H)) VH: QVQLVESGGGVVQPGRSLRLSCGASGFTFSTYGMHWVRQAPGKGLEWVAVIWDDGNNKYYADSVKGRFTISRDNSKNTLYLQMNSLRAEDTAVYYCARDSEVAPVGDYWGQGTLVTVSS VL: DIQMTQSPSTLSASVGDRVTIICRASQSINRWLAWYQQKPGKAPKLLIYKASSLESGVPSRFSGSGSGTEFTLTISSLQPDDFAAYYCQQYNDYSYTFGQGTKLEIK : Met

With those in mind, consider the next binder.
### Prompt Tell me whether 100 nM monkey C5-mmh Bound (RU) is at least 70 RU here: H4H12166P10 (antibody, human IgG4, V domains shown, Histidine-mutated CDR variant of H4H12166P; human IgG4 Fc with S108P) VH: QVQLQESGPGLVKPSETLSLTCTVSGDSVSSSYWTWIRQPPGKGLEWIGYIYYSGSSNYNPSLKSRATISVDTSKNQFSLKLSSVTAADTAVYYCAREGNVDTTMIHDYWGQGTLVTVSS VL: AIQMTQSPSSLSASVGDRVTITCRASQGIRNDLGWYQQKPGKAPKLLIYAASSLQSGVPSRFAGRGSGTDFTLTISSLQPEDFATYYCLQDFNYPWHFGQGTKVEIK
### Response Not met

Origin of measurements: patent US20170355757A1
